biological target: cellular PARG (Homo sapiens, UniProt Q86W56); construct: endogenous in cells; assay: Nuclear PAR accumulation assay (immunofluorescence high-content imaging); conditions: HeLa cells, 1 hour compound treatment then MMS 50 μg/mL for an additional hour
Sequence (Q86W56 whole entry): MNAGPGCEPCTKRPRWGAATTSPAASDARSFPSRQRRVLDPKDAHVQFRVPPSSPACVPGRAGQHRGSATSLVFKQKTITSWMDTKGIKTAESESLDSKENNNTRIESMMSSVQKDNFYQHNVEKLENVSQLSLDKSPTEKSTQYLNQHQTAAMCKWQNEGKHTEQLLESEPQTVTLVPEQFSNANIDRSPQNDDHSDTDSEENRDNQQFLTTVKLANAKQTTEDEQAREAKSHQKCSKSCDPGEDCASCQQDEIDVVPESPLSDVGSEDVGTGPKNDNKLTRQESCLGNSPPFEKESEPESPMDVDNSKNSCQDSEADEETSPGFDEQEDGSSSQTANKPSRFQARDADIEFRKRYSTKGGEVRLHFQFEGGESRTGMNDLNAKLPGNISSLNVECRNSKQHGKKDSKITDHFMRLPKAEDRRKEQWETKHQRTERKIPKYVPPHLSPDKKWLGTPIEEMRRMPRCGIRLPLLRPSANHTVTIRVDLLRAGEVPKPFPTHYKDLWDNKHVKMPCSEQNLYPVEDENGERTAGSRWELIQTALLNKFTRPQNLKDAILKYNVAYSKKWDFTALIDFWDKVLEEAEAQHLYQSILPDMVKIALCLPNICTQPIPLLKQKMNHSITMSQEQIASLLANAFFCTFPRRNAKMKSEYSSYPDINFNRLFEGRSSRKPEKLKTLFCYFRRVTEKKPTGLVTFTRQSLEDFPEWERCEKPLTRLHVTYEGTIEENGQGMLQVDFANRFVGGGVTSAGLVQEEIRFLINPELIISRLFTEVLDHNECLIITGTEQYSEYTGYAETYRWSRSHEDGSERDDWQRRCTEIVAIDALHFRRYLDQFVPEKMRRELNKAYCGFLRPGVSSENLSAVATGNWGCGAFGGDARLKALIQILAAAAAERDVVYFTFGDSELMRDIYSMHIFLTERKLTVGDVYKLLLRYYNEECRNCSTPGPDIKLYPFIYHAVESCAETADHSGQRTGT
Quantity Measured: IC50

Some molecules with recorded IC50:
*Q* Please report the recorded IC50 for CC[C@@H]1CN=C2N(Cc3cnc(C)s3)C(=O)c3cc(S(=O)(=O)NC4(C)CC4)ccc3N21 [Example 30] .
*A* ≤ 100 nM

*Q* Please report the recorded IC50 for Cc1ncc(CN2C(=O)c3cc(S(=O)(=O)NC4(C)CC4)ccc3N3C2=NC[C@@H]3C2CC2)s1 [Example 17] .
*A* 100 to 1000 nM

*Q* Please report the recorded IC50 for CCN1C(=O)c2cc(S(=O)(=O)NC3(C)CC3)ccc2N2C1=NC[C@@H]2C(C)C [Example 37] .
*A* > 10000 nM

*Q* Please report the recorded IC50 for C[C@@H]1[C@@H](C)N=C2N(Cc3cnn(C)c3)C(=O)c3cc(S(=O)(=O)NC4(C)CC4)ccc3N21 [Example 109] .
*A* ≤ 100 nM

*Q* Please report the recorded IC50 for Cc1ncc(CN2C(=O)c3cc(S(=O)(=O)NC4(C)CC4)ccc3N3C2=NC[C@H]3C)[nH]1 [Example 112] .
*A* 1000 to 10000 nM

*Q* Please report the recorded IC50 for Cc1noc(C)c1CN1C(=O)c2cc(S(=O)(=O)NC3(C)CC3)ccc2N2C1=NC[C@@H]2C(C)C [Example 68] .
*A* 1000 to 10000 nM

Further cases:
*Q* Please report the recorded IC50 for C#C[C@@H]1CN=C2N(Cc3cnn(C)c3)C(=O)c3cc(S(=O)(=O)NC4(C)CC4)ccc3N21 [Example 34] .
*A* ≤ 100 nM

*Q* Please report the recorded IC50 for C[C@@H]1N2C(=NC1(C)C)N(Cc1cnn(C)c1)C(=O)c1cc(S(=O)(=O)NC3(C)CC3)ccc12 [Example 110] .
*A* 100 to 1000 nM

*Q* Please report the recorded IC50 for C[C@@H]1CN=C2N(Cc3cnn4c3CCC4)C(=O)c3cc(S(=O)(=O)NC4(C)CC4)ccc3N21 [Example 118] .
*A* ≤ 100 nM

*Q* Please report the recorded IC50 for [2H]C([2H])(c1cnn(C)c1)N1C(=O)c2cc(S(=O)(=O)NC3(C)CC3)ccc2N2C1=NC[C@@H]2C [Example 91] .
*A* 100 to 1000 nM

###

target: cellular PARG (Homo sapiens); construct: endogenous in cells; experiment: Nuclear PAR accumulation assay (immunofluorescence high-content imaging); conditions: HeLa cells, 1 hour compound treatment then MMS 50 μg/mL for an additional hour
pIC50: −log10 of the molar value.
Listed next: entries and their corresponding pIC50.

Some molecules with recorded pIC50:
*Q* Please report the recorded pIC50 for C[C@@H]1CN=C2N(Cc3cnn(C)c3)C(=O)c3cc(S(=O)(=O)NC4(C)CC4)cc(Cl)c3N21 [Example 124] .
*A* ≥ 7.00

*Q* Please report the recorded pIC50 for C[C@@H]1CN=C2N(Cc3cnn4c3OCCC4)C(=O)c3cc(S(=O)(=O)NC4(C)CC4)ccc3N21 [Example 119] .
*A* ≥ 7.00

*Q* Please report the recorded pIC50 for [2H]C([2H])(c1cnn(C)c1)N1C(=O)c2cc(S(=O)(=O)NC3(C)CC3)ccc2N2C1=NC[C@H]2C(F)(F)F [Example 87] .
*A* ≥ 7.00

*Q* Please report the recorded pIC50 for CC[C@H]1CN=C2N(Cc3cc(C)no3)C(=O)c3cc(S(=O)(=O)NC4(C)CC4)ccc3N21 [Example 23] .
*A* 5.00 to 6.00

*Q* Please report the recorded pIC50 for Cc1cc(CN2C(=O)c3cc(S(=O)(=O)NC4(C)CC4)ccc3N3C2=NC[C@@H]3C2CC2)on1 [Example 21] .
*A* 6.00 to 7.00

Further cases:
*Q* Please report the recorded pIC50 for CC#C[C@@H]1CN=C2N(Cc3cnn(C)c3)C(=O)c3cc(S(=O)(=O)NC4(C)CC4)ccc3N21 [Example 59] .
*A* ≥ 7.00

*Q* Please report the recorded pIC50 for Cc1nc(C)c(CN2C(=O)c3cc(S(=O)(=O)NC4CC4)ccc3N3C2=NC[C@H]3C)s1 [Example 94] .
*A* ≥ 7.00

*Q* Please report the recorded pIC50 for COC[C@H]1CN=C2N(Cc3cnn(C)c3)C(=O)c3cc(S(=O)(=O)NC4(C)CC4)ccc3N21 [Example 78] .
*A* 6.00 to 7.00

###

molecular target: cellular PARG (Homo sapiens); construct: endogenous in cells; test: Nuclear PAR accumulation assay (immunofluorescence high-content imaging); settings: HeLa cells, 1 hour compound treatment then MMS 50 μg/mL for an additional hour
pIC50: −log10 of the molar value.
Quantity Measured: pIC50

*Q* API: value(readout=pIC50, system=cellular PARG (Homo sapiens)) for record C[C@@H]1CN=C2N(Cc3cnn(CC#N)c3)C(=O)c3cc(S(=O)(=O)NC4(C)CC4)ccc3N21
*A* ≥ 7.00

*Q* API: value(readout=pIC50, system=cellular PARG (Homo sapiens)) for record CC[C@H]1CN=C2N(Cc3cnn(C)c3)C(=O)c3cc(S(=O)(=O)NC4(C)CC4)ccc3N21
*A* 6.00 to 7.00

*Q* API: value(readout=pIC50, system=cellular PARG (Homo sapiens)) for record CC[C@H]1CN=C2N(CC)C(=O)c3cc(S(=O)(=O)NC4(C)CC4)ccc3N21
*A* < 5.00

Further cases:
*Q* API: value(readout=pIC50, system=cellular PARG (Homo sapiens)) for record CCN1C(=O)c2cc(S(=O)(=O)NC3(C)CC3)ccc2N2C1=NC[C@H]2C1CC1
*A* 6.00 to 7.00

*Q* API: value(readout=pIC50, system=cellular PARG (Homo sapiens)) for record CC#C[C@H]1CN=C2N(Cc3cnn(C)c3)C(=O)c3cc(S(=O)(=O)NC4(C)CC4)ccc3N21
*A* 6.00 to 7.00

*Q* API: value(readout=pIC50, system=cellular PARG (Homo sapiens)) for record Cn1cc(CN2C(=O)c3cc(S(=O)(=O)NC4(C)CC4)ccc3N3C2=NC[C@H]3C2CC2)cn1
*A* ≥ 7.00

###

target: cellular PARG (Homo sapiens); construct: endogenous in cells; experiment: Nuclear PAR accumulation assay (immunofluorescence high-content imaging); conditions: HeLa cells, 1 hour compound treatment then MMS 50 μg/mL for an additional hour
pIC50: −log10 of the molar value.
Listed next: entries and their corresponding pIC50.

Some molecules with recorded pIC50:
*Q* Please report the recorded pIC50 for Cc1cc(CN2C(=O)c3cc(S(=O)(=O)NC4(C)CC4)ccc3N3C2=NC[C@H]3C(C)C)on1 [Example 12] .
*A* 6.00 to 7.00

*Q* Please report the recorded pIC50 for Cn1cc(CN2C(=O)c3cc(S(=O)(=O)NC4(C)CC4)ccc3N3C2=NC[C@H]3C#CC2CC2)cn1 [Example 83] .
*A* ≥ 7.00

*Q* Please report the recorded pIC50 for [2H]C([2H])(c1cnn(C)c1)N1C(=O)c2cc(S(=O)(=O)NC3(C)CC3)cc(OC)c2N2C1=NC[C@H]2C [Example 92] .
*A* 6.00 to 7.00

*Q* Please report the recorded pIC50 for CNC[C@@H]1CN=C2N(Cc3cnn(C)c3)C(=O)c3cc(S(=O)(=O)NC4(C)CC4)ccc3N21 [Example 99] .
*A* 6.00 to 7.00

*Q* Please report the recorded pIC50 for C[C@@H]1CN=C2N(Cc3cnn(C)c3)C(=O)c3cc(S(=O)(=O)NC4(C)CC4)ccc3N21 [Example 46] .
*A* ≥ 7.00

*Q* Please report the recorded pIC50 for CC(C)C1CN=C2N(C)C(=O)c3cc(S(=O)(=O)NC4(C)CC4)ccc3N21 (stereo not drawn) [Example 49] .
*A* 5.00 to 6.00

*Q* Please report the recorded pIC50 for C[C@@H]1CN=C2N(CC3COC3)C(=O)c3cc(S(=O)(=O)NC4(C)CC4)ccc3N21 [Example 54] .
*A* < 5.00

*Q* Please report the recorded pIC50 for CC(C)[C@@H]1CN=C2N(Cc3cnn(C)c3)C(=O)c3cc(S(=O)(=O)NC4(C)CC4)ccc3N21 [Example 40] .
*A* ≥ 7.00

Further cases:
*Q* Please report the recorded pIC50 for C[C@@H]1CN=C2N(Cc3cccnc3)C(=O)c3cc(S(=O)(=O)NC4(C)CC4)ccc3N21 [Example 4] .
*A* 6.00 to 7.00

*Q* Please report the recorded pIC50 for C[C@@H]1N=C2N(Cc3cnn(C)c3)C(=O)c3cc(S(=O)(=O)NC4(C)CC4)ccc3N2[C@@H]1C [Example 108] .
*A* ≥ 7.00

*Q* Please report the recorded pIC50 for [2H]C([2H])(c1cnn(C)c1)N1C(=O)c2cc(S(=O)(=O)NC3(C)CC3)cc(C(F)(F)F)c2N2C1=NC[C@H]2C [Example 134] .
*A* ≥ 7.00

*Q* Please report the recorded pIC50 for C[C@@H]1CN=C2N(CC3CC3)C(=O)c3cc(S(=O)(=O)NC4(C)CC4)ccc3N21 [Example 3] .
*A* 6.00 to 7.00

*Q* Please report the recorded pIC50 for [2H]C([2H])(c1cnn(C)c1)N1C(=O)c2cc(S(=O)(=O)NC3(C#N)CC3)ccc2N2C1=N[C@H]1CCC[C@H]12 [Example 88] .
*A* ≥ 7.00

*Q* Please report the recorded pIC50 for Cc1cc(CN2C(=O)c3cc(S(=O)(=O)NC4(C)CC4)ccc3N3C2=NC[C@H]3C2CC2)on1 [Example 22] .
*A* ≥ 7.00

*Q* Please report the recorded pIC50 for Cc1cc(CN2C(=O)c3cc(S(=O)(=O)NC4(C)CC4)ccc3N3C2=NC[C@@H]3C(C)C)on1 [Example 11] .
*A* < 5.00
